Data origin: patent US20150148256A1

- targetDesc: ABCG2 (Homo sapiens)
- Sequence (Q9UNQ0 whole entry): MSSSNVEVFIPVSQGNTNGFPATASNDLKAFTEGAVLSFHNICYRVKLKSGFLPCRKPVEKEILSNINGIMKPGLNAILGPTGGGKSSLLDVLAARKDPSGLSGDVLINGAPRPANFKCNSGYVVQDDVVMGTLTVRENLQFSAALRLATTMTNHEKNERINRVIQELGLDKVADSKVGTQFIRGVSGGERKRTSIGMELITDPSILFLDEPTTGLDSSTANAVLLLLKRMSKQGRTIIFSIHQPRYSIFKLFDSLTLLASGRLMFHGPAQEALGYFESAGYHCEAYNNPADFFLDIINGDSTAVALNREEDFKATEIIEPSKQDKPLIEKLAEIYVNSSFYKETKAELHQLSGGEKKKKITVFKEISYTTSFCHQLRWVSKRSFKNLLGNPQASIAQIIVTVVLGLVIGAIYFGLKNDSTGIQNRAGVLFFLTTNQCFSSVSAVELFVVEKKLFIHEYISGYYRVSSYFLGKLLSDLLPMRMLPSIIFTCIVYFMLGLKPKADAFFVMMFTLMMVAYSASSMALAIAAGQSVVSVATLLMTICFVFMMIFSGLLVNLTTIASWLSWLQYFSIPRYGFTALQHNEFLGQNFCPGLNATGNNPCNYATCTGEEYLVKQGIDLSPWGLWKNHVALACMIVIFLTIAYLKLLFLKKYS
- protocolSummary: Bioluminescence imaging (BLI) assay in HEK293/ABCG2/fLuc cells
- conditionDetails: human
Structures can show the parent of a compound that is named as a salt.
measure: Fold (BLI enhancement, S/B ratio over control) (fold)
Express it in fold; write the number only.

- COC(=O)C1=C(C)NC(C)=C(C(=O)OCCCN2CCC(c3ccccc3)(c3ccccc3)CC2)[C@H]1c1cccc([N+](=O)[O-])c1: 5.9

// query Any idea what Fold (BLI enhancement, S/B ratio over control) was measured for `CC[C@@]1(O)C[C@H](O[C@H]2C[C@H](N(C)C)[C@H](O[C@H]3C[C@H](O)[C@H](O[C@H]4CCC(=O)[C@H](C)O4)[C@H](C)O3)[C@H](C)O2)c2c(cc3c(c2O)C(=O)c2c(O)cccc2C3=O)[C@H]1C(=O)OC` ?
// result 3.5

// query Try the compound COc1ccc(Cc2nccc3cc(OC)c(OC)cc23)cc1OC [papaverine hydrochloride]
// result 2.0

// query Try the compound `COc1ccc2c(c1)[nH]c1c(C)nccc12`
// result 8.9

// query Try the compound `Cc1cc(O)c2c(=O)c3c(O)cc(O)c4c5c(O)cc(O)c6c(=O)c7c(O)cc(C)c8c1c2c(c34)c(c78)c65`
// result 3.3

// query Try the compound `C[C@H]1O[C@@H](O[C@H]2[C@@H](O)C[C@H](O[C@H]3[C@@H](O)C[C@H](O[C@H]4CC[C@@]5(C)[C@H](CC[C@@H]6[C@@H]5CC[C@]5(C)[C@@H](C7=CC(=O)OC7)CC[C@]65O)C4)O[C@@H]3C)O[C@@H]2C)C[C@H](O)[C@@H]1O`
// result 5.7
